Reported EC by item:
molecular target: C-X-C chemokine receptor type 4 (Homo sapiens, UniProt P61073); assay: Displacement of biotinylated-TN14003 from CXCL12 binding site of CXCR4 in human MDA-MB-231 cells assessed as concentration required to inhibit >50% using rhodamine staining; format: cell-based
Sequence (P61073 whole entry): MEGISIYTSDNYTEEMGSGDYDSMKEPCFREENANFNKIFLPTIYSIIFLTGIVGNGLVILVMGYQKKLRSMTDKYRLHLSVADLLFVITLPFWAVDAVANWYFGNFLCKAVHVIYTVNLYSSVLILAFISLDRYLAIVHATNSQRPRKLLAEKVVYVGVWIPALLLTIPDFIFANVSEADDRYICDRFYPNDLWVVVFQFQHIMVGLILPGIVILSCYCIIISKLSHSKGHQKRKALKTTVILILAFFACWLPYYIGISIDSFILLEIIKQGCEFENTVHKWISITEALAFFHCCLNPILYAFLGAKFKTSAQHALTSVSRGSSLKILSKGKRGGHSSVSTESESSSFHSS
Entry rule: numbers only, all in nM.

Field: example entries. Status: answers known.
Fc1cccc(NCc2ccc(CNc3cccc(F)n3)cc2)n1 100
Fc1ccc(NCc2ccc(CNc3ccc(F)cn3)cc2)nc1 100
c1cnc(NCc2ccc(CNc3ccccc3N3CCCC3)cc2)nc1 100
COc1nccc(NCc2ccc(CNc3ccnc(OC)n3)cc2)n1 10
COc1ncc(F)c(NCc2ccc(CNc3nc(OC)ncc3F)cc2)n1 1

Pending compound:
Please report the measured EC for `Fc1nccc(NCc2ccc(CNc3ccnc(F)n3)cc2)n1`
1
